Quick record: IC50, Syk (Homo sapiens (Human)).
reported metric: IC50 (nM)

1) C#Cc1cccc(Nc2nccc(Oc3ccc(NC(=O)Nc4cc(C(C)(C)C)nn4-c4ccc(OC)nc4)c4ccccc34)n2)c1 | 77
2) COc1ccc(-n2nc(C(C)(C)C)cc2NC(=O)Nc2ccc(Oc3ccnc(Nc4cc(OC)cc(S(=O)(=O)C5CC5)c4)n3)c3ccccc23)cc1 | 62

###

- System: PBMCs
- experimental details: IL-2 and IFN gamma release in CD3/CD28 stimulated PBMC cells
- Assay type: cell-based
- condition summary: Homo sapiens, read-out: IC50 Values for Inhibition of Cytokine Release PBMCs IL-2
Under this convention, True denotes IC50 strictly below 0.08 µM and False denotes IC50 at or above 0.08 µM.

1) COCCOCCOCCOc1cc(Nc2nccc(Oc3ccc(NC(=O)Nc4cc(C(C)(C)C(F)(F)F)nn4-c4ccc(C)cc4)c4ccccc34)n2)cc(OC)c1 | False
2) COc1ccc(-n2nc(C(C)(C)C)cc2NC(=O)Nc2ccc(Oc3ccnc(Nc4cccc(OS(C)(=O)=O)c4)n3)c3ccccc23)cn1 | True
3) COCCOCCOCCOc1cc(Nc2nccc(Oc3ccc(NC(=O)Nc4cc(C(C)(C)C)nn4-c4ccc(C)cc4)c(Cl)c3Cl)n2)cc(OC)c1 | False
4) COc1cc(Nc2nccc(Oc3ccc(NC(=O)Nc4cc(C(C)(C)C)nn4-c4ccc(OC)nc4)c4ccccc34)n2)cc(S(=O)(=O)C2CC2)c1 | True
5) Cc1ccc(-n2nc(C(C)C)cc2NC(=O)Nc2ccc(Oc3ccnc(Nc4cccc(OS(C)(=O)=O)c4)n3)c3ccccc23)cc1 | False

###

- system under test: p38 MAPKα (Homo sapiens (Human), UniProt Q16539)
- Sequence (Q16539 whole entry): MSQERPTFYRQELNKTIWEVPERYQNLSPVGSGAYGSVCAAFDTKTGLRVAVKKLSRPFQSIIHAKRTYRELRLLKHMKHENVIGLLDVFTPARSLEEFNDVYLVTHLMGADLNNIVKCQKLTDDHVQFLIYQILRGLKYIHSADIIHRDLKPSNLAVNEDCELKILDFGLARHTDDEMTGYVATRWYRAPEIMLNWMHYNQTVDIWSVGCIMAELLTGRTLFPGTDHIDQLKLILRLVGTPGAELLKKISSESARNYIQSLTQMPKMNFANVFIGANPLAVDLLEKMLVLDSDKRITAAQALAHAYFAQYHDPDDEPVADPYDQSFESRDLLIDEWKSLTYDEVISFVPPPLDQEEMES
reported metric: IC50 (nM)

1) COc1cc(Nc2nccc(Oc3ccc(NC(=O)Nc4cc(C(C)(C)C)nn4-c4ccc(C)cc4)c4ccccc34)n2)cc(OCCOCCOCCO)c1 [Example 62] | 95
2) COc1cc(Nc2nccc(Oc3ccc(NC(=O)Nc4cc(C(C)C)nn4-c4ccc(C)cc4)c4ccccc34)n2)cc(OS(C)(=O)=O)c1 [Example 12] | 422
3) COCCOCCOCCOc1cc(Nc2nccc(Oc3ccc(NC(=O)Nc4cc(C(C)(C)C)nn4-c4ccc(C)cc4)c4ccccc34)n2)cc(OC)n1 [Example 69] | 172
4) COCCOCCOCCOc1cc(Nc2nccc(Oc3ccc(NC(=O)Nc4cc(C(C)C)nn4-c4ccc(C)cc4)c4ccccc34)n2)cc(OC)c1 [Example 13] | 65

###

Known IL-1β release of a selection of molecules
- System: intestinal mucosa biopsies from the inflamed regions of the colon
- experimental details: Human biopsy assay (intestinal mucosa biopsies of ulcerative colitis patients)
- Format: cell-based
- condition summary: 1 μg/ml, 24 hours, biopsies of UC patients, DMSO control = 100%
- Protocol: Intestinal mucosa biopsies are obtained from the inflamed regions of the colon of IBD patients. […] DMSO control or test compounds at the desired concentration are added to the tissue and incubated for 24 hr in the organ culture chamber. The supernatant is harvested for determination of IL-6, IL-8, IL-1β and TNFα levels by R&D ELISA.
reported metric: IL-1β release (%)

1. COCCOCCOCCOc1cc(Nc2nccc(Oc3ccc(NC(=O)Nc4cc(C(C)(C)C)nn4-c4ccc(OC)cc4)c4ccccc34)n2)cc(OC)c1 | 4
2. COCCOCCOCCOc1cc(Nc2nccc(Oc3ccc(NC(=O)Nc4cc(C(C)C)nn4-c4ccc(C)cc4)c4ccccc34)n2)cc(OC)c1 | 10
3. COc1cc(Nc2nccc(Oc3ccc(NC(=O)Nc4cc(C(C)(C)C)nn4-c4ccc(C)cc4)c4ccccc34)n2)cc(S(=O)(=O)C2CC2)c1 | 5
4. COCCOCCOCCOc1cc(Nc2cc(Oc3ccc(NC(=O)Nc4cc(C(C)(C)C)nn4-c4ccc(C)cc4)c4ccccc34)ccn2)cc(OC)c1 | 5
5. COCCOCCOCCOCCOCCOCCOCCOc1cc(Nc2nccc(Oc3ccc(NC(=O)Nc4cc(C(C)(C)C)nn4-c4ccc(C)cc4)c4ccccc34)n2)cc(OC)c1 | 4

###

- Tested on: PBMCs
- experimental details: IL-2 and IFN gamma release in CD3/CD28 stimulated PBMC cells
- Format: cell-based
- condition summary: Homo sapiens, read-out: IC50 Values for Inhibition of Cytokine Release PBMCs IL-2
pIC50: −log10 of the molar value.
Measured pIC50 of individual entries
reported metric: pIC50

1) COc1cc(Nc2nccc(Oc3ccc(NC(=O)Nc4cc(C(C)(C)C)nn4-c4ccc(C)cc4)c4ccccc34)n2)cc(OCCOCCOCCO)c1 | 7.28
2) COCCOCCOCCOc1cc(Nc2nccc(Oc3ccc(NC(=O)Nc4cc(C(C)(C)C)nn4-c4ccc(OC)cc4)c4ccccc34)n2)cc(OC)c1 | 7.41
3) COc1cc(Nc2nccc(Oc3ccc(NC(=O)Nc4cc(C(C)C)nn4-c4ccc(C)cc4)c4ccccc34)n2)cc(OCCN2CCOCC2)c1 | 7.69
4) COc1cc(Nc2nccc(Oc3ccc(NC(=O)Nc4cc(C(C)(C)C)nn4-c4ccc(C)cc4)c4ccccc34)n2)cc(SCCCO)c1 | 7.31
5) COc1cc(Nc2nccc(Oc3ccc(NC(=O)Nc4cc(C(C)(C)C)nn4-c4ccc(C)cc4)c(Cl)c3Cl)n2)cc(OCCOCCOCCO)c1 | 7.22
6) COc1cc(Nc2nccc(Oc3ccc(NC(=O)Nc4cc(C(C)(C)C)nn4-c4ccc(C)cc4)c4ccccc34)n2)cc(S(=O)(=O)CCCN2CCOCC2)c1 | 7.10

###

Measured IC50 of individual entries
- System: PBMCs
- experimental details: IL-2 and IFN gamma release in CD3/CD28 stimulated PBMC cells
- Type: cell-based
- condition summary: Homo sapiens, read-out: IC50 Values for Inhibition of Cytokine Release PBMCs IL-2
reported metric: IC50 (nM)

1. COc1ccc(-n2nc(C(C)(C)C)cc2NC(=O)Nc2ccc(Oc3ccnc(Nc4cc(OC)cc(S(=O)(=O)C5CC5)c4)n3)c3ccccc23)cc1 | 73.5
2. COc1cc(Nc2nccc(Oc3ccc(NC(=O)Nc4cc(C(C)(C)C)nn4-c4ccc(C)cc4)c4ccccc34)n2)cc(OCCOCCOCCN(C)C)c1 | 14.6
3. COc1cc(Nc2nccc(Oc3ccc(NC(=O)Nc4cc(C(C)C)nn4-c4ccc(C)cc4)c4ccccc34)n2)cc(SCCO)c1 | 30.7
4. COCCOCCOCCOCCOc1cc(Nc2nccc(Oc3ccc(NC(=O)Nc4cc(C(C)C)nn4-c4ccc(C)cc4)c4ccccc34)n2)cc(OC)c1 | 74.1
5. COCCOCCOCCOc1cc(Nc2nccc(Oc3ccc(NC(=O)Nc4cc(C(C)C)nn4-c4ccc(C)cc4)c(Cl)c3Cl)n2)cc(OC)c1 | 9.8
6. COCCOCCOCCOc1cc(Nc2nccc(Oc3ccc(NC(=O)Nc4cc(C(C)(C)C)nn4-c4ccc(C)cc4)c4ccccc34)n2)cc(OC)n1 | 50.3

###

- system under test: c-Src (Homo sapiens (Human))
- Sequence (P12931 whole entry, looked up): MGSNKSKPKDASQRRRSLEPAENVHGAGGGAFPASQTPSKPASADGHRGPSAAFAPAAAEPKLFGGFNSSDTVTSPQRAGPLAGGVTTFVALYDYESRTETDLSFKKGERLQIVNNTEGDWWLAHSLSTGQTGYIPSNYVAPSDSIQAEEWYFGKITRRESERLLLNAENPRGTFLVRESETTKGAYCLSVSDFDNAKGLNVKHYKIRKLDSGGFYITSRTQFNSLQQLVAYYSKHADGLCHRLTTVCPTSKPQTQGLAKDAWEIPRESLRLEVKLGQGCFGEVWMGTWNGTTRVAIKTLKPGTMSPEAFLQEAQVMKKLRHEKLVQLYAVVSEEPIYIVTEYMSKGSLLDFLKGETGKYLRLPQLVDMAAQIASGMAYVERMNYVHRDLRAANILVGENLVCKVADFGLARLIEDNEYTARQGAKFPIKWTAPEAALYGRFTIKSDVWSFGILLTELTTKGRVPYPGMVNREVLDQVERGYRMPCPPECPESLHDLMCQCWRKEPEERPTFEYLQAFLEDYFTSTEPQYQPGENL
pIC50: −log10 of the molar value.
Returns y if the recorded pIC50 is greater than or equal to 8, and n otherwise.

1. COc1cc(Nc2nccc(Oc3ccc(NC(=O)Nc4cc(C(C)C)nn4-c4ccc(C)cc4)c4ccccc34)n2)cc(OS(C)(=O)=O)c1 | n
2. C#Cc1cccc(Nc2nccc(Oc3ccc(NC(=O)Nc4cc(C(C)C)nn4-c4ccc(C)cc4)c4ccccc34)n2)c1 | n
3. COCCOCCOCCOCCOCCOCCOCCOc1cc(Nc2nccc(Oc3ccc(NC(=O)Nc4cc(C(C)C)nn4-c4ccc(C)cc4)c4ccccc34)n2)cc(OC)c1 | y
4. COc1cc(Nc2nccc(Oc3ccc(NC(=O)Nc4cc(C(C)C)nn4-c4ccc(C)cc4)c4ccccc34)n2)cc(OCCN2CCOCC2)c1 | n
5. COc1cc(Nc2nccc(Oc3ccc(NC(=O)Nc4cc(C(C)(C)C)nn4-c4ccc(C)cc4)c4ccccc34)n2)cc(SCCCN2CCOCC2)c1 | n
6. COc1cc(Nc2nccc(Oc3ccc(NC(=O)Nc4cc(C(C)C)nn4-c4ccc(C)cc4)c4ccccc34)n2)cc(S(=O)(=O)C2CC2)c1 | n
7. COc1cc(Nc2nccc(Oc3ccc(NC(=O)Nc4cc(C(C)(C)C)nn4-c4ccc(OC)nc4)c4ccccc34)n2)cc(S(=O)(=O)C2CC2)c1 | n
8. Cc1ccc(-n2nc(C(C)C)cc2NC(=O)Nc2ccc(Oc3ccnc(Nc4cccc(OCCOCCOCCO)c4)n3)c3ccccc23)cc1 | y
9. COc1cc(Nc2nccc(Oc3ccc(NC(=O)Nc4cc(C(C)(C)C)nn4-c4ccc(C)cc4)c4ccccc34)n2)cc(S(=O)(=O)C2CC2)c1 | n
10. COCCOCCOCCOc1cccc(Nc2nccc(Oc3ccc(NC(=O)Nc4cc(C(C)C)nn4-c4ccc(C)cc4)c4ccccc34)n2)c1 | n
11. COc1cc(Nc2nccc(Oc3ccc(NC(=O)Nc4cc(C(C)(C)C)nn4-c4ccc(C)cc4)c4ccccc34)n2)cc(OCCCN2CCOCC2)c1 | n
12. COCCOCCOCCOc1cc(Nc2cc(Oc3ccc(NC(=O)Nc4cc(C(C)(C)C)nn4-c4ccc(C)cc4)c4ccccc34)ccn2)cc(OC)c1 | n
13. COc1cc(Nc2nccc(Oc3ccc(NC(=O)Nc4cc(C(C)C)nn4-c4ccc(C)cc4)c4ccccc34)n2)cc(SCCO)c1 | n
